# SYSTEM UNDER TEST: T1, ACVR2B-Fc fusion protein (human, UniProt Q13705 19-137)
# T1 construct: also called water-soluble ACVR2B
# T1 sequence: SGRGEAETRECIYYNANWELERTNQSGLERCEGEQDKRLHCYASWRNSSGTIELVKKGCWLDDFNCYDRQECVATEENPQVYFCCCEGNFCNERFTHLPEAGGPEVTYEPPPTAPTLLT
# ASSAY NOTES: phage ELISA, ACVR2B coated
MEASUREMENT NAME: OD490 (OD)
# value in OD; strip the unit string

Which OD490 is listed for ACVR2B D07 (monoclonal scFv-phage) (scFv, V domains shown, also called D7) VH: QVQLVQSGAEVKKPGASVKVSCKASGYTFTSYYMHWVRQAPGQGLEWMGIINPSGGSTSYAQKFQGRVTMTRDTSTSTVYMELSSLRSEDTAVYYCAKDQSRGWYSNFDSWGQGTLVTVSS VL: DIQMTQSPSTLSASVGDRVTITCRASQTVSNWLAWYQLKPGKAPKLLIYKASSLESGVPSRFSGTGSETEFTLTISSLQPDDFATYYCQQYHSYPITFGQGTRLEIK ?
2.66

What do we get for ACVR2B B11 (monoclonal scFv-phage) (scFv, V domains shown) VH: VQLVESGGGLVQPGRSLRLSCAASGFTFDNHAMHWVRRAPGKGLEWVSGISWNGGTTAYADSVKGRFSIFRDNAEKSLYLQMNSLRAEDTAVYYCARGSSSGRYYFDYWGQGTLVTVSS VL: DIQMTQSPSSVSASVGDRVTITCRASQGISTYLNWYQHQSGKAPKLLIYGAFRLQSGVPSRFSGSGSGTDFTLTISNLQPEDFATYYCQQAKNFPLTFGGGTKVDIK ?
2.99

Queued: ACVR2B C07 (monoclonal scFv-phage) (scFv, V domains shown, also called C7) VH: QMQLVQSGGGLVKPGGSLRLSCAPSGFTFRDYHMSWIRQAPGKGLEWISNISNSGTNIYYADSVKGRFTISRDNAKNSLYLQMNSLRAEDTAVYYCARGHYGMDIWGQGTTITVSS VL: DIQMTQSPSSLSASVGDRVTITCRASQGIANYLAWYQQKPGKAPKLLIYAASTLQSGVPSRFSGSGSGTDFTLTISSLQPEDFATYYCQQVKSYPLSFGGGTKVEIK
2.98

Same read-out for ACVR2B C08 (monoclonal scFv-phage) (scFv, V domains shown, also called C8) VH: VQLVESGGGLVQPGGSLRLSCSASGFTFSSYAMHWVRQAPGKGLEYVSAISSNGGSTYYADSVKGRFTISRDNSKNTLYLQMNSLRAEDTAVYYCAKTYGGYGNAFDIWGQGTMITVSS VL: DIQMTQSPSSVSASVGDRVTITCRASQGISRWLAWYQQKPGKAPKLLIYAASNLQSGVPSRFSGSGSGTDFTLTINSLQPEDFATYFCQQGKSFPYTFGPGTKVEIK ?
2.86

Item: ACVR2B B08 (monoclonal scFv-phage) (scFv, V domains shown, also called B8) VH: VQLVQSGGGLVHPGQSLRLSCTGSGFPFGDYSMTWVRQAPGKGLEWVGLVRSKAYGGTTEYAASVKGRFIMSRDDSRSIAYLQMNSLRAEDTAVYYCARGHYGMDVWGQGTTVTVSS VL: DIQMTQSPSSVSASVGDRVTITCRASQGISNWLAWYQQKPGKAPKLLIYAASSLQSGVPSRFSGSGSGTDFTLTISSLQPEDFATYYCQQAKSYPYTFGQGTKVEIK
2.64

Query ACVR2B F08 (monoclonal scFv-phage) (scFv, V domains shown, also called F8) VH: VQLVESGGGLVQPGGSLRLSCAASGFTFSDHYMDWVRQAPGKGLEWVGRTRNKANSYTTEYAASVKGRFTISRDDSKNSLYLQMNSLRAEDTAVYYCTKGAWLDYWGQGTLVTVSS VL: IQMTQSPSAMSASVGDRVTITCRASQGISNYLAWFQQKPGKVPKRLIYGASSLQGGVPSRFSGSGSGTEFTLTITSLQPEDFATYFCLQHKSYPLTFGPGTKVEIK next
2.94

Also ACVR2B B12 (monoclonal scFv-phage) (scFv, V domains shown) VH: VQLVQSGAEVKKPGESLKISCKTSGYTFTHYWIGWVRQMPGKGLEWMGRINPTDSYADYSPSFQGHVIMSVDKSVSTAYLHWNSLKASDTAMYYCARGTALGVWGQGTTVTVSS VL: IQMTQSPSAMSASVGDRVTITCRASQGISNYLAWFQQKPGKVPKRLIYAASSLQSGVPSRFSGSGSGTEFTLTITSLQPEDFATYYCLQHKSYPYTFGQGTKLEIK , if possible.
2.76
